# procedure-details: Equilibrium solubility of crystal forms in purified water (HPLC)
# Format: physicochemical
# settings: saturated (equilibrium) solubility in purified water, room temperature, HPLC; methanesulfonate
measure-name: log10(Water solubility) (log10 of the value in µg/mL)

> print(dat)
                                   molecule             measure.name  data.value
1  COc1ccc(-c2nn([C@@H](C)c3nc4cccc(Cl)c4c(=O)n3-c3ccccc3)c3ncnc(N)c23)c(F)c1F.CS(=O)(=O)O [Crystal form D]  log10(Water solubility)        0.66
2  COc1ccc(-c2nn([C@@H](C)c3nc4cccc(Cl)c4c(=O)n3-c3ccccc3)c3ncnc(N)c23)c(F)c1F.CS(=O)(=O)O [Crystal form C]  log10(Water solubility)        0.58
3  COc1ccc(-c2nn([C@@H](C)c3nc4cccc(Cl)c4c(=O)n3-c3ccccc3)c3ncnc(N)c23)c(F)c1F.CS(=O)(=O)O [Crystal form F]  log10(Water solubility)        1.39
4  COc1ccc(-c2nn([C@@H](C)c3nc4cccc(Cl)c4c(=O)n3-c3ccccc3)c3ncnc(N)c23)c(F)c1F.CS(=O)(=O)O [Crystal form B]  log10(Water solubility)        0.40
5  COc1ccc(-c2nn([C@@H](C)c3nc4cccc(Cl)c4c(=O)n3-c3ccccc3)c3ncnc(N)c23)c(F)c1F.CS(=O)(=O)O [Crystal form E]  log10(Water solubility)        0.10
